target: UniProt P35372
Sequence (P35372 whole entry): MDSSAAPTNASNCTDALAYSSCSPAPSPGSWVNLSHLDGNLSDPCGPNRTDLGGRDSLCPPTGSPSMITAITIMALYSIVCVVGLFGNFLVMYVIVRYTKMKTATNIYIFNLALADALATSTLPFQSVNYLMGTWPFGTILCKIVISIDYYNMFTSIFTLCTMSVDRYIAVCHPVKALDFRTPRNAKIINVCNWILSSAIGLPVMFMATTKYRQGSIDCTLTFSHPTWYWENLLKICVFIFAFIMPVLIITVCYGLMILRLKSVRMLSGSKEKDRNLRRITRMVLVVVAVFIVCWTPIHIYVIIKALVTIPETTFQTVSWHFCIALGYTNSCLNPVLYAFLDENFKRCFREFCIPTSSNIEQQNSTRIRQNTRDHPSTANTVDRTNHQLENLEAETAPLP
Entries annotated with measured AC50

Solved entries:
> print(dat)
                                   compound  parameter.measured  value.reported
1  O=C(O)CCn1c2c(c3ccccc31)C[C@H](NS(=O)(=O)c1ccc(F)cc1)CC2                AC50         > 30 µM
2  COc1ccc(CCC(C)NCC(O)c2ccc(O)c([S+](C)[O-])c2)cc1 (stereo not drawn)                AC50         > 30 µM

Shifting focus to the compound that follows.
State measured AC50 of the compound CS(=O)(=O)Nc1cc2occ(NC=O)c(=O)c2cc1Oc1ccccc1 with UniProt P35372.
> 30 µM
